# target.system: 5-hydroxytryptamine receptor 1A (Homo sapiens, UniProt P08908)
# Sequence (P08908 whole entry): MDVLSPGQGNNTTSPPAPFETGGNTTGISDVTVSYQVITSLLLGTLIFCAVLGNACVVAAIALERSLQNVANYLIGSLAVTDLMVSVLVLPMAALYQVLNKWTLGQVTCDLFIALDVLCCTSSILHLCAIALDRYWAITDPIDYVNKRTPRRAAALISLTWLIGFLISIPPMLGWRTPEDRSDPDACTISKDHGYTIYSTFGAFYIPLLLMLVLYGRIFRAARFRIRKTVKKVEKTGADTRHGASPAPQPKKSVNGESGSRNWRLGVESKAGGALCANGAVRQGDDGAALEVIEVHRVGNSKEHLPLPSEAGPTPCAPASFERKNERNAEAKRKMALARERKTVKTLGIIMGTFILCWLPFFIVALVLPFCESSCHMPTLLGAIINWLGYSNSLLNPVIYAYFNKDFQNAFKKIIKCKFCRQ
# test.summary: Displacement of [3H]Way100635 from human recombinant 5-HT1A receptor expressed in CHO cell membranes by radioligand binding assay
I'd be grateful if you could share measured pKi for these entries.
One number for each entry, as −log10 of the molar value.

A selection of reference data follows.
CCC(C)Oc1cc2c(cc1OC)-c1c(OC)c(OC)cc3c1[C@H](C2)N(C)CC3 (some centres undefined) ... 6.61
COc1cc2c(cc1OC)-c1c(OC)c(OC)cc3c1[C@H](C2)N(C)CC3 ... 6.77

Could you report pKi for every entry in the following list?
1. CCCCCOc1cc2c(cc1OC)-c1c(OC)c(OC)cc3c1[C@H](C2)N(C)CC3
2. C=CCOc1cc2c(cc1OC)-c1c(OC)c(OC)cc3c1[C@H](C2)N(C)CC3
3. CCOc1cc2c(cc1OC)-c1c(OC)c(OC)cc3c1[C@H](C2)N(C)CC3

1. 6.75
2. 6.44
3. 6.30

Could you report pKi for every entry in the following list?
1. CCCC(C)Oc1cc2c(cc1OC)-c1c(OC)c(OC)cc3c1[C@H](C2)N(C)CC3 (some centres undefined)
2. CCCCCCOc1cc2c(cc1OC)-c1c(OC)c(OC)cc3c1[C@H](C2)N(C)CC3

6.93
6.56

Could you report pKi for every entry in the following list?
1. COc1cc2c(cc1OCC1CC1)C[C@H]1c3c(cc(OC)c(OC)c3-2)CCN1C
2. CCCCOc1cc2c(cc1OC)-c1c(OC)c(OC)cc3c1[C@H](C2)N(C)CC3

1: 6.65; 2: 6.82

---

# Organism: Homo sapiens
# test.summary: Selectivity index, ratio of Ki for human recombinant 5-HT2A receptor to Ki for human recombinant 5-HT7 receptor
Exam item: assign True to entries whose Ratio Ki is below 10 and False to entries at or above 10. Note that a value of exactly 10 receives False.

COc1cc2c(cc1OCCF)C[C@H]1c3c(cc(OC)c(OC)c3-2)CCN1C ... False
CCCCC(C)Oc1cc2c(cc1OC)-c1c(OC)c(OC)cc3c1[C@H](C2)N(C)CC3 (some centres undefined) ... False
COc1cc2c(cc1OC1CCCCC1)C[C@H]1c3c(cc(OC)c(OC)c3-2)CCN1C ... False

Strictly below 10: is that where Ratio Ki of COc1cc2c(cc1OC)-c1c(OC)c(OC)cc3c1[C@H](C2)N(C)CC3 [GLAUCINE] sits?
False

Strictly below 10: is that where Ratio Ki of CCCCOc1cc2c(cc1OC)-c1c(OC)c(OC)cc3c1[C@H](C2)N(C)CC3 sits?
False

Strictly below 10: is that where Ratio Ki of CCC(C)Oc1cc2c(cc1OC)-c1c(OC)c(OC)cc3c1[C@H](C2)N(C)CC3 (some centres undefined) sits?
True

---

# Species on record: Homo sapiens
# test.summary: Selectivity index, ratio of Ki for human recombinant 5-HT2A receptor to Ki for human recombinant 5-HT7 receptor
Exam item: assign true to entries whose Ratio Ki is below 10 and false to entries at or above 10. Note that a value of exactly 10 receives false.

Strictly below 10: is that where Ratio Ki of COc1cc2c(cc1OCc1ccc(Br)cc1)C[C@H]1c3c(cc(OC)c(OC)c3-2)CCN1C sits?
true

Strictly below 10: is that where Ratio Ki of COc1cc2c(cc1OC(C)C)C[C@H]1c3c(cc(OC)c(OC)c3-2)CCN1C sits?
false

Strictly below 10: is that where Ratio Ki of C=CCOc1cc2c(cc1OC)-c1c(OC)c(OC)cc3c1[C@H](C2)N(C)CC3 sits?
false

Strictly below 10: is that where Ratio Ki of CCCC(C)Oc1cc2c(cc1OC)-c1c(OC)c(OC)cc3c1[C@H](C2)N(C)CC3 (stereo partly drawn) sits?
true

Strictly below 10: is that where Ratio Ki of COc1cc2c(cc1OCc1ccccc1)C[C@H]1c3c(cc(OC)c(OC)c3-2)CCN1C sits?
true

Strictly below 10: is that where Ratio Ki of CCOc1cc2c(cc1OC)-c1c(OC)c(OC)cc3c1[C@H](C2)N(C)CC3 sits?
false

Values compiled from ChEMBL document CHEMBL3580564.
